Target: HDAC6 (Homo sapiens)
Sequence (Q9UBN7 1-1215): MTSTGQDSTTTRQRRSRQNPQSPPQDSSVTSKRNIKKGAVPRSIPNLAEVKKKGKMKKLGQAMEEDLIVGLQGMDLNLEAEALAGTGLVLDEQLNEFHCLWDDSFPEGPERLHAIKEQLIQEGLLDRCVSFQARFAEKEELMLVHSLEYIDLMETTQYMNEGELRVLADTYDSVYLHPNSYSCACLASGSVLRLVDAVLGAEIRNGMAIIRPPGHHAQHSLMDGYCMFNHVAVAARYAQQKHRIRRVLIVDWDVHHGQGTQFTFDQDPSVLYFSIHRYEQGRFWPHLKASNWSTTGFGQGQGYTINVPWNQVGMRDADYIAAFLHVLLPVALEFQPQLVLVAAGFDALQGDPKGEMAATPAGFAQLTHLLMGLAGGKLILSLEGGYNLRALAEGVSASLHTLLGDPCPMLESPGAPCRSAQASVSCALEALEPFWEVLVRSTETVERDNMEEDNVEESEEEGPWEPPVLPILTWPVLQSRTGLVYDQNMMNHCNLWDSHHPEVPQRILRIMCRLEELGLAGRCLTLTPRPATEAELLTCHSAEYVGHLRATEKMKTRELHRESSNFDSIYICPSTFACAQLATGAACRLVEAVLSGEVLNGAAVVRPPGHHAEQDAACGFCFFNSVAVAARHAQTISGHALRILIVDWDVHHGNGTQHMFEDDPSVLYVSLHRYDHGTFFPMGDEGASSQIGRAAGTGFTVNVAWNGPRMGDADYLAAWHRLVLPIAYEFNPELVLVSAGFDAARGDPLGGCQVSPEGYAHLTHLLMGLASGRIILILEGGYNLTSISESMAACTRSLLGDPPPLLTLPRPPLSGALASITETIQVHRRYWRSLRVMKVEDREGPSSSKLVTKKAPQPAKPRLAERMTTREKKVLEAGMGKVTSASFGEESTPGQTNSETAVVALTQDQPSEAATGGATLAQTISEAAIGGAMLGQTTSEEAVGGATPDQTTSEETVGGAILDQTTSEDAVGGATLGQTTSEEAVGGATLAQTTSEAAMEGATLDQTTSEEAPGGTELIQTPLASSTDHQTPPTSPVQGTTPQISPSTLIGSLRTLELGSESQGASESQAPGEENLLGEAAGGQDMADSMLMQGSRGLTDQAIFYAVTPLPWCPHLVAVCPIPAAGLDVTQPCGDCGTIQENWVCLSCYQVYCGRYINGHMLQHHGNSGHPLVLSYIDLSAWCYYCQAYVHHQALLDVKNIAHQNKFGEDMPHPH
Assay: Fluorogenic HDAC assay kit (BPS Bioscience), HDAC6 inhibition
Conditions: purified/recombinant enzyme; inhibitor range 10,000-0.1 nM
pIC50: −log10 of the molar value.
Lab note: compare pIC50 against 8. Equal or greater, write Fulfilled. Smaller, write Not fulfilled.

Reported pIC50 reaches at least 8 for O=C(CCCCCC(=O)Nc1ccc(C(C(=O)Nc2cccc3cccnc23)C(=O)Nc2cccc3cccnc23)cc1)NO [Compound 31] ?
Not fulfilled

Here is the next compound: O=C(CCCCCCCC(=O)Nc1ccc(C(C(=O)Nc2cccc3cccnc23)C(=O)Nc2cccc3cccnc23)cc1)NO [Compound 28]
Not fulfilled

Here is the next compound: CC(C)(C)OC(=O)Nc1ccc(-c2csc(C(=O)NCCCCCCC(=O)NO)c2)cc1 [Compound 79]
Fulfilled

Here is the next compound: CC(C)(C)c1ccc(NC(=O)C(CCCCCC(=O)NO)C(=O)Nc2ccc(C(C)(C)C)cc2)cc1 [Compound 77]
Not fulfilled

Here is the next compound: O=C(CCCCCCC(=O)Nc1ccc(C(C(=O)Nc2ccccc2)C(=O)Nc2ccccc2)cc1)NO [Compound 9]
Fulfilled

Here is the next compound: O=C(CCCCCCC(=O)Nc1ccc(C(C(=O)Nc2cccc3cccnc23)C(=O)Nc2cccc3cccnc23)cc1)NO [Compound 6]
Fulfilled

Here is the next compound: O=C(CCCCCCNC(=O)c1ccc(C(F)(C(=O)Nc2cccc3cccnc23)C(=O)Nc2cccc3cccnc23)cc1)NO [Compound 65]
Not fulfilled

Here is the next compound: CC(C)(C)c1ccc(CNC(=O)CCCCCCCC(=O)NO)cc1 [Compound 78]
Not fulfilled

Values from patent US20140031368A1
